Tested on: Plasmodium falciparum
protocol summary: Plasmodium falciparum sporozoite viability assay; also: in the data most compounds retested in dose-response had high values
Assay type: functional, organism-based
About 290 (0.85%) of roughly 34,000 compounds showed an effect of 50% or more. The entries come from a sample that favours strong results as a whole.
experimental endpoint: Percent Effect (%)
Number in %, nothing else.

Data request: // lookup Percent Effect for CC(=O)Nc1nc(C(=O)NCc2ccc(N3CCOC(C)C3)nc2)cs1 (stereo unspecified)
Data returned: 13.32

Data request: Percent Effect lookup needed for Cc1nccn1C1CCCN(C(=O)Cc2cn3ccccc3n2)C1 (stereo unspecified) , thanks.
Data returned: 3.916

Data request: Any idea what its Percent Effect is? The compound is CN1CCC(c2cccc(-c3cccc(C(=O)O)c3)n2)CC1
Data returned: 10.86

Data request: Data request, read-out Percent Effect, for CC(NCC1=Cc2cc(Cl)ccc2OC1)c1nnc2n1CCCC2 (stereo unspecified)
Data returned: -0.2255

Data request: Find the recorded Percent Effect belonging to CS(=O)(=O)NC1CCN(C(=O)NCCc2ccccn2)CC1 and report it.
Data returned: -4.021

Data request: Value lookup for Percent Effect; key = Cc1cnn(CCNCc2nnc(C3CC3)o2)c1
Data returned: 9.956

----------
For each entry below, report its Percent Effect value.
Test system: Plasmodium falciparum
protocol summary: Plasmodium falciparum sporozoite viability assay; also: in the data most compounds retested in dose-response had high values
Assay type: functional, organism-based
About 290 (0.85%) of roughly 34,000 compounds showed an effect of 50% or more. The full list was thinned out, with strong results kept by preference.
Write down the numeric answer in % and omit the unit.

Data request: Query: Percent Effect; subject: Brc1cccc(-c2nnc(CNCCn3cccn3)o2)c1
Data returned: 2.399

Data request: Consider the molecule shown here: CC(=O)NCC(=O)N1CCOC(c2cccc(N)n2)C1 (stereo unspecified) What is its recorded Percent Effect?
Data returned: 2.685

Data request: Field request: Percent Effect | item: Cc1c[nH]nc1C1CCN(C(=O)C2CCOCC2)C1 (stereo unspecified)
Data returned: -9.491

Data request: What value of Percent Effect has been reported for the following molecule? CN(Cc1noc(C2CC2)n1)C1CCN(Cc2ccccc2C#N)C1 (stereo unspecified)
Data returned: 5.942

Data request: Given the molecule CN1CCN(c2ccc(NS(=O)(=O)c3ccc(Br)s3)cc2C(=O)O)CC1 , what is its reported Percent Effect?
Data returned: 4.745

Data request: Give the measured Percent Effect of CC(=O)N1CCOC(c2ccnc(N(C)C)n2)C1 (stereo unspecified) .
Data returned: 3.741

----------
System: Plasmodium falciparum
protocol summary: Plasmodium falciparum sporozoite viability assay; also: in the data most compounds retested in dose-response had high values
Assay type: functional, organism-based
Out of some 34,000 compounds screened, about 290 (0.85%) showed an effect of 50% or more. This excerpt belongs to a sample that is enriched for strong results.
For each entry below, report its Percent Effect value.
Reply numerically in %, unit not repeated.

Data request: Fill in the blank: the reported Percent Effect of Cc1cc(OCCC(=O)NCc2ccc(F)cc2)nnc1C is ____.
Data returned: 1.961

Data request: Percent Effect for Cn1ccnc1C(=O)N1CCC2(CCN2Cc2ccc(F)cc2)C1.O=C(O)C(F)(F)F (stereo unspecified) ?
Data returned: -1.35

Data request: Consider the compound Cc1csc(CNC(=O)N2CCN(Cc3cc(C)on3)CC2)n1 and give its measured Percent Effect.
Data returned: 3.68

Data request: Which Percent Effect is listed for Cc1noc(C)c1CCC(=O)NCC1(O)CCN(c2ccccn2)C1 (stereo unspecified) ?
Data returned: 8.46

Data request: Bench note: what Percent Effect did CC1CCN(S(=O)(=O)NCc2ccccc2Cn2cccn2)CC1 show?
Data returned: 3.533

Data request: # lookup: Percent Effect of COc1ccc2cc(C(=O)N3CCCC(n4ccnc4C)C3)[nH]c2c1 (stereo unspecified)
Data returned: -4.765

----------
Test system: Plasmodium falciparum
protocol summary: Plasmodium falciparum sporozoite viability assay; also: in the data most compounds retested in dose-response had high values
Assay type: functional, organism-based
Screen size: about 34,000 compounds; about 290 (0.85%) showed an effect of 50% or more. The list comes from a sample in which strong results are over-represented; it also holds close analogues and randomly drawn compounds.
experimental endpoint: Percent Effect (%)
The figure you give is taken to be in %; do not add the unit.

Data request: Could you tell me which Percent Effect is on file for Cc1nc(CN2CCCC(NCc3nc4ccccc4s3)C2)no1 (stereo not given) ?
Data returned: 12.82

Data request: Looking for the measured Percent Effect of O=C(NCCCO)c1cnc(-c2ccccc2)nc1O , can you help?
Data returned: -8.71

Data request: Fill blank: measured Percent Effect of the molecule CC(=O)N1CCOC(c2cc(N3CC(O)C3)nc(C)n2)C1 (stereo not given) is ____.
Data returned: -19.49

Data request: Can you share its Percent Effect? I mean this molecule: Cc1nccn1C1CCCN(C(=O)c2sccc2-n2cnnn2)C1 (stereo not given)
Data returned: -0.2931

Data request: So what's the measured Percent Effect for this one? OCC1CCCN1c1cc(NCc2ccsc2)ncn1 (stereo not given)
Data returned: 11.95

Data request: What Percent Effect value was documented for this molecule, Cc1cc(C)n(CC2CCCCN2CCc2ccncc2)n1 (stereo not given) ?
Data returned: 5.224

Data request: // query Percent Effect value for entry Cc1nccc(N2CCCC(C)(C(=O)NC3CCCC3)C2)n1 (stereo not given)
Data returned: 2.213

Data request: Would you mind telling me what Percent Effect value was observed for Cc1cc(N2CCC3(CCCN(CCO)C3=O)C2)nc2cc(Cl)ccc12 (stereo not given) ?
Data returned: -0.3581

Data request: I have this molecule here, CNC(=O)CNC(=O)c1ccc(-c2scnc2C)nc1 , and I need its recorded Percent Effect.
Data returned: 1.458

Data request: # get_value(readout='Percent Effect', item= CC1CN(CC(=O)Nc2nccs2)CCN1Cc1nccn1C (stereo not given) )
Data returned: -1.162

Data request: Query (molecule): CCOC(=O)C1CCCN(c2ccc(-c3nc(C)no3)cn2)C1 (stereo not given) ; field requested: Percent Effect
Data returned: -0.4292

Data request: Given the molecule CNc1cncc(C2CCCN2S(=O)(=O)c2ccccc2F)n1 (stereo not given) , what is its reported Percent Effect?
Data returned: 7.397

Data request: Looking for the measured Percent Effect of Cn1nc(CNC(=O)c2ccc(OC(F)(F)F)cc2)c2c1CCOC2 , can you help?
Data returned: -1.164

Data request: Entry Cc1cc(CN2CCCC(c3cc(C(F)(F)F)[nH]n3)C2)no1 (stereo not given) has what Percent Effect?
Data returned: 9.793

Data request: # query: Percent Effect of entry Cc1cccnc1CNc1cc(N2CCCC2CO)ncn1 (stereo not given)
Data returned: -13.57

Data request: Quick check: Percent Effect of CC(=O)NCCC(=O)NCc1cc(Br)ccc1OC(F)F ?
Data returned: -22.55

Data request: What does the data say about its Percent Effect? Entry: CC(NC(=O)NCCCc1n[nH]c(N)c1C#N)c1ccccc1F (stereo not given)
Data returned: 14.69

Data request: So what does the record say about Percent Effect for CCCc1cc(CNC(=O)C2CCOc3ccccc3C2)on1 (stereo not given) ?
Data returned: 10.71

Data request: Look up Percent Effect: CN1CCCN(C(=O)NCc2cccnc2-n2cccn2)CC1
Data returned: -0.7887

Data request: Suppose we examine the molecule Clc1cc(CN2CCCCC2Cn2cncn2)c2ncccc2c1 (stereo not given) ; what Percent Effect value has been reported?
Data returned: -10.63

Data request: Form field: reported Percent Effect of O=C(c1cc(-c2cccnc2)[nH]n1)N1CCCC(c2cnccn2)C1 (stereo not given)
Data returned: 12.79

Data request: Requested field: Percent Effect. Item: CCSCCNC(=O)c1cnc(-c2ccccc2)nc1O
Data returned: 2.095

Data request: Using the record for CC(Cn1cccn1)NC(=O)NCCc1cccnc1 (stereo not given) , report its Percent Effect.
Data returned: 12

Data request: Consider the molecule CCCn1cc(NC(=O)c2ccc(S(C)(=O)=O)cc2)ccc1=O and give its measured Percent Effect.
Data returned: -6.389

Data request: For the molecule Cc1ccc(-c2nc(CN3CCCC3Cn3cc(C)cn3)no2)cc1 (stereo not given) , what Percent Effect is on record?
Data returned: -11.03

Data request: Query (molecule): COC(=O)Nc1ccc(CNc2cncc(-n3cccn3)n2)cc1 ; field requested: Percent Effect
Data returned: -0.1023

Data request: I would be grateful if you could share the reported Percent Effect for CS(=O)(=O)NCc1cc(-c2cc(F)cc(F)c2)nc(N2CCCC2)n1 .
Data returned: 13.63

Data request: Name the recorded Percent Effect for OCC1CCCN1c1cc(N2CCc3ccccc3C2)ncn1 (stereo not given) .
Data returned: 3.468

Data request: // query Percent Effect value for entry CCOc1ncccc1C(=O)N1CCCC1Cn1nc(C)cc1C (stereo not given)
Data returned: -1.877

Data request: Would you mind telling me what Percent Effect value was observed for OC[C@@H]1CCCN1c1ccc(-c2nc(CCc3ccccc3)no2)cn1 ?
Data returned: -12.02
